System: U2OS
experimentalDetails: cell viability relative to DMSO; higher = less toxic
assaySetup: 72 h; 100 nM
endpointName: cell viability (%)

>>> print(df.to_string())
                                   molecule  valueunits  observedmeasurement
0  Fc1ccc(C(c2ccccc2)(c2ccccc2F)n2ccnc2)cc1 (stereo not given)           %                  107
1  CO/N=C(\C(=O)N[C@@H]1C(=O)N2C(C(=O)[O-])=C(C[n+]3ccn4ncccc43)CS[C@H]12)c1nsc(N)n1           %                  102
2       CC(=O)N(O)C/C=C/c1cccc(Oc2ccccc2)c1           %                 94.6
3                        CC1(CN)Cc2ccccc2C1           %                  101
4  NC1=NCC2c3ccccc3Cc3ccccc3N12 (stereo not given) [epinastine]           %                 91.7
